Source: patent US20210371537A1

In this section we review reported pKd values for a set of binders.
MEASURED_TARGET: T1, human TNFR2-His (human, UniProt P20333 23-257)
T1 construct: not shown: His tag
T1 sequence: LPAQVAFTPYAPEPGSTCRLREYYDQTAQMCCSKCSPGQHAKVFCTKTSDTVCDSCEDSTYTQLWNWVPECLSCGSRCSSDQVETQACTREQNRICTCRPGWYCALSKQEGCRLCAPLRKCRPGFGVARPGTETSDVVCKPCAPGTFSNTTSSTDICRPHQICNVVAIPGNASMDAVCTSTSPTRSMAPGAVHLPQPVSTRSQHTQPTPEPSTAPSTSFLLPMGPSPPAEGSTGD
ASSAY_NOTES: BLI, antibody on anti-Human Fc Capture (AHC) biosensors, human TNFR2-His in solution
pKd: −log10 of the molar value.
MEASURED_PROPERTY: pKd

| BINDER | MEASURED_PROPERTY | VALUE_REPORTED |
| --- | --- | --- |
| ABV2.13 (antibody, human IgG1, kappa, V domains shown) VH: QVQLVQSGSELKKPGASVKVSCKASGYTFTTFGMSWVRQAPGQGLEWMGWINTYSGVPHYAQGFTGRFVFSLDTSVSTAYLQISSLKAEDTAVYFCARRSNFAYWGQGTLVTVSS VL: DIVLTQSPDSLAVSLGERATINCRASQTVDSSGNSFMHWYQQKPGQPPKLLIYLGNRLESGVPDRFSGSGSRTDFTLTISSLQAEDVAVYYCQQSNEDPWTFGGGTKVEIKR | pKd | 8.80 |
| ABV2.15 (antibody, human IgG1, kappa, V domains shown) VH: QVQLVQSGSELKKPGASVKVSCKASGYTFTTFGMSWVRQAPGQGLEWMGWINTYSGVPHYAQGFTGRFVFSLDTSVSTAYLQISSLKAEDTAVYFCARRSNFAYWGQGTLVTVSS VL: DIVLTQSPDSLAVSLGERATINCRASESLTASGNSFMHWYQQKPGQPPKLLIYRASNLESGVPDRFSGSGSRTDFTLTISSLQAEDVAVYYCQQSRHVNWTFGGGTKVEIKR | pKd | 9.80 |
